molecular target: T1, human PD-L1-Fc protein (human, UniProt Q9NZQ7 19-238); test: ELISA, antibody titrated on coated human PD-L1-Fc, OD 450nm; lower right panel
T1 construct: coating antigen of the ELISAs; also called rhPD-L1-Fc; not shown: Fc
T1 sequence (Q9NZQ7 19-238 limits assumed): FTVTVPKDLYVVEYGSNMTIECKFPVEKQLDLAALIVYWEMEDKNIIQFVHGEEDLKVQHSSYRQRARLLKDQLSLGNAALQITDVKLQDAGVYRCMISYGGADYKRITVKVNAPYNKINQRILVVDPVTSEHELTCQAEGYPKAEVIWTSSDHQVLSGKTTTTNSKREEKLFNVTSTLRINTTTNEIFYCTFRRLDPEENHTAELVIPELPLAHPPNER
Form field: EC50 (one value per entry).
Return type: number; implicit unit mg/L.

# count of solved cases: 3
Hu67F3G7-21 (antibody, V domains shown, humanized) VH: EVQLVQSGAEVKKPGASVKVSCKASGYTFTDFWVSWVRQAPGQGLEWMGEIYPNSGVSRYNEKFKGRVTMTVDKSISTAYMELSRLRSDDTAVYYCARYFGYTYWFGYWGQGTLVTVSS VL: DIQMTQSPSSLSASVGDRVTITCRASKSVSTYMHWYQQKPGKQPKLLIYSASHLESGVPSRFSGSGSGTDFTLTISSLQPEDFATYYCQQSNELPVTFGGGTKVEIK = 0.00919
Hu67F3G7-22 (antibody, V domains shown, humanized) VH: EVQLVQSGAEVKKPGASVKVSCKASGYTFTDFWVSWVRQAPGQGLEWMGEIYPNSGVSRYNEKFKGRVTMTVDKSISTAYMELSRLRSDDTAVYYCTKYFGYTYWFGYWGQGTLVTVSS VL: DIQMTQSPSSLSASVGDRVTITCRASKSVSTYMHWYQQKPGKQPKLLIYSASHLESGVPSRFSGSGSGTDFTLTISSLQPEDFATYYCQQSNELPVTFGGGTKVEIK = 0.0078
Hu67F3G7-20 (antibody, V domains shown, humanized) VH: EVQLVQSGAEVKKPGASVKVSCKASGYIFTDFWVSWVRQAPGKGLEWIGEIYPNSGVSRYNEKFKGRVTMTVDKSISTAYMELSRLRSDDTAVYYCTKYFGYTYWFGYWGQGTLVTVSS VL: DTVLTQSPSLSASVGDRVTITCRASKSVSTYMHWYQQKPGKQPKLLIYSASHLESGVPSRFSGSGSGTDFTLTISSLQPEDFATYYCQQSNELPVTFGGGTKVEIK = 0.0146

# binder Hu67F3G7-19 (antibody, V domains shown, humanized) VH: EVQLVQSGAEVKKPGASVKVSCKASGYIFTDFWVSWVRQAPGQGLEWIGEIYPNSGVSRYNEKFKGRVTMTVDKSISTAYMELSRLRSDDTAVYYCARYFGYTYWFGYWGQGTLVTVSS VL: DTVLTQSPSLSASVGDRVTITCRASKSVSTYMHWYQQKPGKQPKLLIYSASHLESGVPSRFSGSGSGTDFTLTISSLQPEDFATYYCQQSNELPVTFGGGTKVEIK ; its EC50 = 0.0132
